target: human CB1 (hCB1) receptor (Homo sapiens, UniProt P21554); construct: expressed in transfected cells; host or cells: CHO-K1; assay: Inhibition of forskolin-activated cAMP production upon activation of hCB1 (HTRF), CHO-K1 cells; type: cell-based; conditions: CB1 pEC50, hCB1-CHO-K1 cells, forskolin-activated cAMP, pEC50=-log(EC50)
Sequence (P21554 whole entry): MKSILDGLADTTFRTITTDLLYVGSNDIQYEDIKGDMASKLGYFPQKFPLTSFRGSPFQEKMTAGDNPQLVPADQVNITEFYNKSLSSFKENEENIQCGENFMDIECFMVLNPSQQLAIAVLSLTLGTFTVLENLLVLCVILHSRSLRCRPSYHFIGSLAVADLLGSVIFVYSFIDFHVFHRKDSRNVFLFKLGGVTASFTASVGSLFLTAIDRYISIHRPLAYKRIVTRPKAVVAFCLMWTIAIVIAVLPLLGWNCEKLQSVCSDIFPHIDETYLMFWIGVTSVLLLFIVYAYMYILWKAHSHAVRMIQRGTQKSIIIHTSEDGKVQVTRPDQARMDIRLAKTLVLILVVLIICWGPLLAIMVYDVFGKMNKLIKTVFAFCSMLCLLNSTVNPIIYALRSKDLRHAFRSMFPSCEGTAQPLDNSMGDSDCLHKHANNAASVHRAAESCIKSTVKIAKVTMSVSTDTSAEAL
recorded metric: EC50 (µM)

compound	recorded metric	endpoint value
CC(C)(C)c1nc2cc(S(=O)(=O)c3cc[n+]([O-])cc3)ccc2n1CC1CCOCC1	EC50	0.692
CC(=O)c1ccc([S+]([O-])c2ccc3c(c2)nc(C(C)(C)C)n3CC2CCOCC2)nc1 (stereo not shown)	EC50	7.59
CC(C)(C)c1nc2cc(S(=O)(=O)c3ccc(C(=O)N4CCCC4)o3)ccc2n1CC1CCOCC1	EC50	2.09
Cc1oc(S(=O)(=O)c2ccc3c(c2)nc(C(C)(C)C)n3CC2CCOCC2)cc1S(C)(=O)=O	EC50	0.363
